TARGET_ENTITY: T1, rat IL-17F (rat, UniProt Q5BJ95 29-161)
T1 sequence (looked up): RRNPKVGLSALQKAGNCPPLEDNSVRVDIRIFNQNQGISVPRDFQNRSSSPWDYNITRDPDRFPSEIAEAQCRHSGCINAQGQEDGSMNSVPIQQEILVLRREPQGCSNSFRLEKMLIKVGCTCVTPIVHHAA
PROTOCOL_NOTES: ELISA, coated IL-17F;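 note: binding ELISA on coated antigen from various species, with bound Nanobodies revealed by an HRP-linked anti-myc antibody and esTMB substrate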
QUANTITY_MEASURED: OD (OD)

INSERT INTO assay_data (binder, reported_result) VALUES
  ('07B09 (VHH, Class 3) VHH: EVQLVESGGGLVQAGGSLRLSCGASGGTFSSYATGWFRQAPGKEREFVAVLRWSDGHTAYADSVKGRFTISRDGAKNTMYLQMSSLKPEDTAIYYCTTATRPGEWDYWGQGTQVTVSS', 0.0025),
  ('17C01 (VHH, Class 4) VHH: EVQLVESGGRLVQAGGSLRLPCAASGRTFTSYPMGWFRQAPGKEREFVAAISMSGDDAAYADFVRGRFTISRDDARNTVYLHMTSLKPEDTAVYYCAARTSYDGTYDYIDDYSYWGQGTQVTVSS', 0.0025),
  ('04B09 (VHH, Class 2) VHH: EVQLVESGGGLVQPGGSLRLSCAASGFTLGYYAIGWFRQAPGKEREGVSCDSSSDGDTYYANSVKGRFTISTDNGKNTVYLQMNSLKPEDTAVYYCATCTDWNYDYWGQGTQVTVSS', 0.0015),
  ('24G10 (VHH, Class 3) VHH: EVQLVESGGGLVQAGGSLRLSCGAAGGTFSSYATGWFRQAPGKEREFVAVFRWSDSHTAYADSVKGRFTISRDGAKNTLYLQMSSLKPEDTAIYYCTTATRPGEWDYWGQGTQVTVSS', 0.0025),
  ('11A06 (VHH, Class 2) VHH: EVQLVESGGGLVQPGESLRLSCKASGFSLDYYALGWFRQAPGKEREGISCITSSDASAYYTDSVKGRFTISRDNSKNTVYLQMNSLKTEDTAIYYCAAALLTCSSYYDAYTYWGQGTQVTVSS', 0.0045),
  ('06E11 (VHH, Class 3) VHH: EVQLVESGGGLVQAGGSLRLSCPVSGRAFSRGRLGWFRQAPGKEREFVAVAHWSGAITSYADSVKGRFTFSRDNAKNTMNLQMNSLKPEDTAVYYCAADSETSGNWVYWGQGTQVTVSS', 0.0085),
  ('13E02 (VHH, Class 4; also called IL17MS13E02) VHH: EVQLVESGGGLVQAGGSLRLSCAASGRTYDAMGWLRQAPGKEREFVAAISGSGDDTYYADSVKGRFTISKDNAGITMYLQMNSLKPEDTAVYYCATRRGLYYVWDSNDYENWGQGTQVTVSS', 0.0255),
  ('13B05 (VHH, Class 4) VHH: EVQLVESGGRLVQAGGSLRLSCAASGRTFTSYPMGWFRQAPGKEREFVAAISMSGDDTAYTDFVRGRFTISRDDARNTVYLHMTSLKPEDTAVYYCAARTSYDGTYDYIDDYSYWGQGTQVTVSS', 0.0095);
